Test system: SN12C
experiment-notes: NCI tumour cell line growth inhibition, 48 h
The source made the active and inactive calls. Cut-off read from the data, not from the text of the source: active = GI50 up to about 1.1 µM and inactive = higher. Where a SMILES comes first, the peptide text is derived from it. [ ]: non-standard residue; d: D form. 2Nal = N[CH](Cc1ccc2ccccc2c1)C(=O)O
Bench note: report the call from 1 for active, -1 for inactive

Completed entries (count: 6):
molecule	assigned-label
Cn1cc(NC(=O)c2cc(NC(=O)Nc3cc(C(=O)Nc4cc(C(=O)NCCC(=N)N)n(C)c4)n(C)c3)cn2C)cc1C(=O)NCCC(=N)N	-1
CNC1C(O)CC(OC2C/C=C(\C)C/C(C)=C/C=C/CCC(C)CNC(=O)/C=C/C=C/C2C)OC1C (configuration not stated)	1
COC(=O)C1C(O)CCC2CN3CCc4c([nH]c5ccccc45)C3CC21 (configuration not stated)	-1
COc1ccc2[nH]c3c(cnn4cnnc34)c2c1	-1
CCOC(=O)CC(=O)CSc1c(-c2ccccc2)c(=O)n(-c2ccccc2)c(=S)n1-c1ccccc1	-1
CN(C)CCCNc1ccc([N+](=O)[O-])c2nc3ccccc3c(N)c12	1

Recorded test outcome, item "O=C(CCc1nnc(S)[nH]1)Nc1ccc(Cl)c(Cl)c1" -1

// return assay outcome for CC(NC(=O)C(N)Cc1ccccc1)C(=O)NC(Cc1ccc(O)cc1)C(=O)NC(Cc1c[nH]c2ccccc12)C(=O)NC(CCCCN)C(=O)NC(C(=O)NC(C)C(=O)NC(Cc1ccc2ccccc2c1)C(N)=O)C(C)C (configuration not stated) (H-FAYWKVA[2Nal]-NH2; configuration not given here) -1

For "O=c1[nH]n(Cc2ccccc2Cl)c2ccc([N+](=O)[O-])cc12" , which call appears in the assay record? -1

====

Test system: HCT-15
I'd appreciate it if you marked entries TRUE when GI50 is lower than 20 µM and FALSE when it is not.

Illustrative cases are given below, each with its answer.
molecule	assigned-label
Nc1nc2c(N)cc(C(F)(F)F)cc2nc1-c1ccccc1	FALSE
CCOc1snc(C(Cl)(Cl)Cl)c1Cl	FALSE
[O-]/[N+](=N\c1ccccc1CO)c1ccccc1CO	FALSE
CCOc1ccc(NC(=O)/C(=N\N)C(C(=O)OC)c2nc3ccc(Cl)cc3nc2O)cc1 (centres undefined)	FALSE
CC(C)(C)c1ccc(-n2c3nc(=O)n(-c4ccccc4C(F)(F)F)c(=O)c-3cc3ccccc32)cc1	TRUE
O=S(=O)(O)c1ccc(/N=N\c2ccc(/N=N/c3ccc(/C=C/c4ccc(/N=[N+](\[O-])c5ccc(/C=C/c6ccc(/N=N/c7ccc(/N=N/c8ccc(S(=O)(=O)O)cc8)c8ccccc78)cc6S(=O)(=O)O)c(S(=O)(=O)O)c5)cc4S(=O)(=O)O)c(S(=O)(=O)O)c3)c3ccccc23)cc1	FALSE

Check if GI50 falls below 20 µM for c1ccc(SC2CCSc3ccccc3C2Sc2ccccc2)cc1 (centres undefined) . FALSE

Hi there! Is GI50 for "O=c1[nH]c2cc3cccnc3c(Cl)c2nc1CBr" below 20 µM, do you know? TRUE

Dear reviewer, please state whether "C[n+]1c2ccccc2n2c3ccccc3c(NCCc3ccccn3)c(C#N)c21" has GI50 strictly beneath 20 µM. TRUE

====

Test system: LOX IMVI
experiment-notes: NCI tumour cell line growth inhibition, 48 h
Calls of active or inactive are those of the source. Cut-off read from the data, not from the text of the source: active = GI50 up to about 1.1 µM and inactive = higher.
Allowed answers: active, inactive

Use these answered entries as a reference point.
> print(dat)
                                   compound  assigned.label
1  c1ccc(N/N=N/c2ccc(-c3nc4ccccc4[nH]3)cc2)nc1        inactive
2  Cn1c(-c2ccc(/N=N/Nc3ccc(-c4n[nH]c(=S)n4C)cc3)cc2)n[nH]c1=S        inactive
3  COC(=O)c1c(O)ccc2c1c1c(n2Cc2ccccc2OC)C(=O)c2ccccc2C1=O        inactive
4  CN(C)CCNc1ccc2c(=O)n(CCN(C)C)c(=O)n3c4ccc(O)cc4c(=O)c1c23          active
5               C=C(CN)CO[Si](C)(C)C(C)(C)C        inactive

Returns: the outcome recorded for "COc1c(OC)c(OC)c(C(=O)/C=C/c2ccccc2)c(OC)c1OC" in this assay. inactive

// param item: "O=C1C=CC2=[N+]([O-])C(c3ccccc3)(c3ccccc3)/C(=N\c3ccccc3)C2=C1" ; yields the recorded call inactive

For this compound, state the assay outcome: CC(C)CC12CC3CCC(CNC1=O)C32C (stereo unspecified) inactive

====

Tested on: A549
experiment-notes: NCI tumour cell line growth inhibition, 48 h
Active and inactive are the calls of the source. Rule as the data show it: active = GI50 up to about 1.1 µM and inactive = higher.
Hi there, use one of these labels in your reply, thanks! active, inactive

See these solved cases before continuing.
> print(dat)
                                   molecule  assigned.label
1  COc1ccc(NC(=O)CC(=O)n2nc(C)c(/N=N/c3cccc(C)c3)c2C)cc1        inactive
2     C#C[C@@]1(O)CCCC2=CC3(CC[C@]21C)SCCS3        inactive
3  COC(=O)C1=CCC2c3[nH]c4ccccc4c3CCN2C1 (stereo not given)        inactive
4  C=C(C1=CC(=O)C(C)(C)O1)[C@@H]1CC=C([C@@H]2CC[C@H]3[C@@]2(C)CC[C@H]2C(C)(C)C(=O)[C@H](O)C[C@]32C)[C@H](O)O1        inactive

Would you mind telling me which call this test gave O=C1CCc2ccc(O)c(c2)Oc2ccc(cc2)C(Sc2ccccc2)CCO1 (stereo not given) ? inactive

Write down the call the test reported for this molecule. Item: N#CC(C(=O)CCCC(=O)Nc1ccc(Cl)cc1Cl)c1ccccc1 (stereo not given) inactive

Outcome logged for "COC(CN1C=C(Sc2ccccc2)CC1)OC" in this assay: inactive

Outcome logged for "CC[n+]1c(/C=C/c2ccc(N(CCCl)CCCl)cc2)ccc2cc(Br)ccc21" in this assay: inactive

====

Tested on: NCI-H23
experiment-notes: NCI tumour cell line growth inhibition, 48 h
Structures can show the parent of a compound that is named as a salt. Activity calls are given as the source filed them. No stated cut-off is given here; in the data, active = GI50 up to about 1.1 µM and inactive = higher.
Listing of recorded GI50 by entry.

Illustrative cases are given below, each with its answer.
compound	metric	reported-measurement
COC(=O)C1=CO[C@@H](C)[C@@H]2Cn3ccc4c5ccccc5nc-4c3C[C@H]12 [ALSTONINE HYDROCHLORIDE]	GI50	> 100 µM (inactive)
Cc1ccc(-c2cc(-c3ccco3)c(C#N)c(=O)n2C2OC(CO)C(O)C(O)C2O)cc1 (stereo not drawn)	GI50	37.1 µM (inactive)
CC(/C=C/C(=O)c1sc(C(N)=S)nc1C)=C\c1ccccc1	GI50	> 100 µM (inactive)
O=C(CCc1nnc(S)[nH]1)Nc1ccc(Cl)c(Cl)c1	GI50	53.3 µM (inactive)

Could you share what GI50 was measured for "C[n+]1c2ccccc2n2c3ccccc3c(NCCc3ccccn3)c(C#N)c21" , tested on NCI-H23? 2.56 µM (inactive)

Test system NCI-H23; read-out GI50; what value for "O=c1[nH]c2cc3cccnc3c(Cl)c2nc1CBr" ? 15 µM (inactive)

Field: GI50 (NCI-H23). Entry: "O=S(=O)(O)c1ccc(/N=N\c2ccc(/N=N/c3ccc(/C=C/c4ccc(/N=[N+](\[O-])c5ccc(/C=C/c6ccc(/N=N/c7ccc(/N=N/c8ccc(S(=O)(=O)O)cc8)c8ccccc78)cc6S(=O)(=O)O)c(S(=O)(=O)O)c5)cc4S(=O)(=O)O)c(S(=O)(=O)O)c3)c3ccccc23)cc1" > 100 µM (inactive)

Which GI50 is reported with NCI-H23 for this entry: COc1ccc2c(c1)O[C@@H]1C(O)Oc3cc(OC)c(OC)cc3[C@]1(O)C2=O (stereo partly drawn) ? 3.44 µM (inactive)

====

Test system: SK-OV-3
experiment-notes: NCI tumour cell line growth inhibition, 48 h
Active and inactive are the calls of the source. Cut-off read from the data, not from the text of the source: active = GI50 up to about 1.1 µM and inactive = higher.
# output must be one of active, inactive

compound	assigned-label
NC(=O)c1csc(C2CCC(CO)O2)n1 (stereo not drawn)	inactive
COc1cc2c(OC)c(c1)CCCC1=CC(=O)C=C(CCC2)C1=O	inactive
COc1ccc2c(c1)C(N)CC2=O (stereo not drawn)	inactive
C=CCN(CC=C)Cn1c(=S)sc2ccccc21	inactive
CCOc1ccc(NC(=O)/C(=N\N)C(C(=O)OC)c2nc3ccc(Cl)cc3nc2O)cc1 (stereo not drawn)	inactive

// return assay outcome for "COc1cc(S(=O)(=O)Nc2nc(-c3ccc(/N=C/c4ccccc4O)cc3)cs2)ccc1Cl" inactive

====

Test system: BT-549
experiment-notes: NCI tumour cell line growth inhibition, 48 h
Activity calls are given as the source filed them. Cut-off read from the data, not from the text of the source: active = GI50 up to about 1.1 µM and inactive = higher.
Classes to choose from: label 1 for active, label 0 for inactive

Worked examples, 8 compounds total:
compound	assigned-label
COc1cc(C2c3cc4c(cc3OC(N3CCCC3)C2C)OCO4)cc(OC)c1OC (centres undefined)	label 1
COc1cc(C(=O)O[C@@H]2[C@@H](OC(=O)c3cc(OC)c(OC)c(OC)c3)[C@@H](OC)O[C@@H]3CO[C@@H](c4ccccc4)O[C@@H]23)cc(OC)c1OC	label 0
C[n+]1c2ccccc2n2c3ccccc3c(NCCc3ccccn3)c(C#N)c21	label 0
COc1cc(OCc2ccc3nc(OC)c(OC)nc3c2)cc(OC)c1OC	label 0
CC(NNC(=O)c1ccc[n+]([BH2-]C#N)c1)c1ccccc1 (centres undefined)	label 0
CCN(CC)CCCn1c(=O)c2ccccc2n2c3c(=O)n(C)c(=O)n(C)c3nc12	label 0
Cc1c(C)c(C)c(-n2c(=O)n(C)c(=O)n2C(C)(C)C)c(C)c1C	label 0
COC(=O)C1=C(O)C(C(=O)OC)[C@@]2(O)[C@@H](C(=O)OC)C(c3ccc(OC(=O)/C(=C/c4ccc(Cl)cc4)c4ccc(Cl)cc4)cc3)C[C@@H]1[C@@H]2C(=O)OC (some centres undefined)	label 0

Test call, this compound: CCC(C)NC(=S)N/N=C(\C)c1ccccn1 (centres undefined) label 1

// return assay outcome for CC(NS(C)(=O)=O)c1ccccc1 (centres undefined) label 0

Tell me the assay call for "Cc1cc2c(c(C(=O)NCC(=O)O)c1)Oc1c(cc(C)cc1C(=O)NCC(=O)O)S2" please. label 0
